assay protocol: protein stability index of a GFP-peptide fusion (yeast GPS) (PSI 1-4); higher = more stable; sorted into four equal gates, so the index is relative within each strain
conditions used: ubr1∆
observable: protein stability index
Numbers only.

KESDDPSIPLVIIRRLK [POP1] | 3.05
KADDDSVTIISAGNDKM [ASC1] | 3.04

Below are some sequences; for each one, tell me its protein stability index.
1. KKEATKPAFSFGINTNT [YLR335W/NUP2]
2. NKKIYQWNKLTSFDIKR [POP6]
3. ELAESTTTKIIDSTDHI [LRP1]
4. GQMAPIGTGAFDVMIDE [RPO21]

Response:
1. 3.35
2. 3.03
3. 2.63
4. 2.54

Below are some sequences; for each one, tell me its protein stability index.
1. PLAAGNFVSEKGDLRRG [RPC53]
2. DGAYALSASWDKTLRLW [ASC1]
3. PTVSLTINLDRFMKGRR [RPC82]
4. SVFYTILRDYGPQEAAN [RPO31]
5. NIERKQTRKEYNTSILE [SIN4]
6. VVGRTTRSNPPFKRKML [REC8]
7. PQDDDSQSKMMSSQISS [MTR3]

Response:
[3.24, 3.26, 2.63, 2.88, 3.23, 2.75, 3.27]

Below are some sequences; for each one, tell me its protein stability index.
1. ANVFRLENQKDLVIVDE [MTW1]
2. LHKEQWQSGLKMYDYEE [RPN11]
3. QNYRLDGRSFDQFRDVE [RRP45]
4. NVPVHVSPAFRVQVGDI [RPS11A]
5. KAKFTSLAVRSLQDRSS [YCS4]
6. ILEEGSSGMGAFGGSGG [RPN10]
7. SMERKVQGAAPWDTSLE [MCD1]

Response:
3.43
2.39
3.32
2.71
2.24
3.28
3.44

Below are some sequences; for each one, tell me its protein stability index.
1. NLTRGINLRKVAEKMNG [RPT6]
2. SPVTGDNSPSEDFMDIP [SNF2]
3. SPTENGVFDPASYSKYL [RPL22B]
4. VNDVELAFKKNEMLLKR [MTW1]

Response:
1. 1.28
2. 3.42
3. 2.87
4. 3.11

====

assay protocol: protein stability index of a GFP-peptide fusion (yeast GPS) (PSI 1-4); higher = more stable; sorted into four equal gates, so the index is relative within each strain
conditions used: san1∆
observable: protein stability index
Answers are plain numbers.

Illustrative cases are given below, each with its answer.
PLYVMDEIDAALDFRNV [SMC4] | 3.26
DGKGAVYSFDPVGSYER [PRE7] | 2.94
IGIDEGSDEAYVKDARK [RPC40] | 3.19
FNQRDGEHEKSNILLNS [MED1] | 2.99
IFKIVQSRLMSTSYHLN [MED6] | 1.31

Below are some sequences; for each one, tell me its protein stability index.
1. LREYLNLPEHIVPGTYI [RPS10A]
2. NTNELKEVSSFLMGIFN [MTR3]
3. KKNLGRLTRLWIKNEQE [PRP8]
4. PKDKAIKRMAIRNIVEA [RPS26A]

Response:
2.82
2.92
1.25
1.9

Below are some sequences; for each one, tell me its protein stability index.
1. YSSVAGTVSRVNRLLSV [RRP4]
2. HASFLCSFITQDKMFVS [FAS1]

Response:
1.82
1.35
